B1: ZNF263 (parent)
chain: QRTHTGEKPYKCPECGEIFAHSSN

Variants of: B1
Run description: protein stability index of a GFP-peptide fusion (GPS, HEK-293T) (PSI 1-6); higher = more stable;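 also: lentivirally expressed fusions sorted by FACS into six bins by GFP to DsRed ratio, PSI derived from sequencing read proportions per bin multiplied by bin number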
Condition notes: c terminus: a fixed tail appended
// label = 1 if protein stability index is not less than 3, otherwise -1

INSERT INTO measurements (residue_change, class_label) VALUES
  ('C12S', 1),
  ('E14K', 1),
  ('Q1D', 1),
  ('S23T', 1),
  ('F19A', 1),
  ('E14H', 1),
  ('K11Q', 1),
  ('C15F', 1),
  ('T3P', 1),
  ('E14Q', -1),
  ('H21Y', -1),
  ('Y10P', 1),
  ('Q1V', -1),
  ('T3Q', -1),
  ('K8A', 1),
  ('E7R', -1),
  ('A20I', 1),
  ('K8Y', 1),
  ('P9H', 1),
  ('A20K', 1),
  ('Y10T', 1),
  ('K8S', 1),
  ('H21K', 1),
  ('I18E', 1),
  ('E17M', 1),
  ('P9D', 1),
  ('P13C', 1),
  ('K11H', 1),
  ('E7M', 1),
  ('E7Q', 1),
  ('P13T', 1),
  ('S22M', -1),
  ('P13G', 1),
  ('H4K', 1),
  ('C12P', 1),
  ('R2L', 1),
  ('G6R', -1),
  ('S23P', -1),
  ('K8W', 1),
  ('K8G', 1),
  ('P9V', 1),
  ('T3Y', -1),
  ('T5C', 1),
  ('G16C', -1),
  ('K11A', 1),
  ('K8C', 1),
  ('P9W', -1),
  ('K8F', -1),
  ('C15V', 1),
  ('F19G', 1),
  ('S23W', -1),
  ('A20M', 1),
  ('F19N', 1),
  ('S23K', 1),
  ('G16K', 1),
  ('T5A', 1),
  ('T5W', -1),
  ('G16L', 1),
  ('H4L', 1),
  ('Q1I', -1),
  ('P13K', 1),
  ('K11R', 1),
  ('H4F', 1),
  ('I18H', 1),
  ('R2W', -1),
  ('S22E', 1),
  ('K8L', 1),
  ('G6W', -1),
  ('N24E', 1),
  ('P9I', -1),
  ('E17N', 1),
  ('A20E', 1),
  ('Y10D', 1),
  ('E17L', -1),
  ('Q1P', 1),
  ('H4M', 1),
  ('S23M', -1),
  ('K11W', 1);
